Every entry's value here was drawn from paper PMC12040169.

testMethodNotes: in vitro
experimentalContext: human, hela cells, % viability
Exercise: state measured viability at 28.5 h, 10 µM for each of the compounds provided.
Give just the number in %; leave the unit off.

For reference, reported viability at 28.5 h, 10 µM for O=C(Nc1nc2ccccc2[nH]1)NC1CCCCC1 stands at 86.1

For reference, reported viability at 28.5 h, 10 µM for COc1cccc(CNCc2ccccc2[N+](=O)[O-])c1OC stands at 98

For reference, reported viability at 28.5 h, 10 µM for O=C(NCCn1nc(-c2cccs2)oc1=O)C1CCCCC1 stands at 105

For reference, reported viability at 28.5 h, 10 µM for CN1CCC(C(=O)NC2Cc3ccccc3C2)CC1 stands at 118

For reference, reported viability at 28.5 h, 10 µM for CCCC(=O)Nc1ccc2c(c1)nc1n2CCN(Cc2ccccc2)C1 stands at 105

For reference, reported viability at 28.5 h, 10 µM for CCC(CC)C(=O)N(C)c1c(C)nc2c(OCC(=O)c3ccc(F)cc3)cccn12 stands at 113

For reference, reported viability at 28.5 h, 10 µM for CC(C)C(=O)N1C[C@H]2CCc3nnc(-c4ccccc4)n3[C@H]2C1 stands at 88

For reference, reported viability at 28.5 h, 10 µM for CCN(CC)CCSc1nc2sc3c(c2c(=O)n1-c1ccccc1)CC(C)(C)OC3 stands at 96.6

For reference, reported viability at 28.5 h, 10 µM for COc1ccc(CCNC(=O)c2ccccc2N(C)S(C)(=O)=O)cc1 stands at 104

For reference, reported viability at 28.5 h, 10 µM for Cc1cc(C(=O)N2CCC(Oc3nccn(Cc4ccc(S(C)(=O)=O)cc4)c3=O)CC2)ccc1Cl stands at 92.6

For reference, reported viability at 28.5 h, 10 µM for O=C(C1CCCCC1)N1CCC(n2c(=O)[nH]c3ccccc32)CC1 stands at 92.8

For reference, reported viability at 28.5 h, 10 µM for O=C(CN1C(=O)CCC1=O)Nc1nnc(-c2ccc3c(c2)CCCC3)o1 stands at 80.2

For reference, reported viability at 28.5 h, 10 µM for CS(=O)(=O)c1ccc(-c2ccc(C(=O)N3CCN(Cc4ccc(F)c(F)c4)CC3)nc2)cc1 stands at 87.4

====

Exercise: state measured viability at 28.5 h, 10 µM for each of the compounds provided.
testMethodNotes: in vitro
experimentalContext: human, hela cells, % viability
Give just the number in %; leave the unit off.

For reference, reported viability at 28.5 h, 10 µM for O=C(NCCc1c[nH]c2ccccc12)c1cccs1 [CBK231038] stands at 88.2

For reference, reported viability at 28.5 h, 10 µM for O=C(NCCc1c[nH]c2ccccc12)c1cc2c(ccc3ccccc32)oc1=O [CBK264550] stands at 91.5

For reference, reported viability at 28.5 h, 10 µM for O=C(NC[C@H]1O[C@@H](CC(=O)N2CCc3ccccc32)[C@H](O)[C@@H]1O)C1CC1 [CBK288915] stands at 105

For reference, reported viability at 28.5 h, 10 µM for CN1CCC(Oc2nc3cc(Cl)c(Cl)cc3nc2N2CCCC2)CC1 [CBK115290] stands at 82.2

For reference, reported viability at 28.5 h, 10 µM for Cc1ccc(OCCC(=O)NCC(c2cccs2)N2CCOCC2)cc1 (stereo not drawn) [CBK305976] stands at 90.9

For reference, reported viability at 28.5 h, 10 µM for CCOCCCn1c(SCC(=O)NC(Cc2ccccc2)C(=O)O)nc2ccccc2c1=O (stereo not drawn) [CBK297132] stands at 90.5

For reference, reported viability at 28.5 h, 10 µM for Cc1cc(C)c2c(O)nc(SCC(=O)c3ccccc3)nc2n1 [CBK264336] stands at 100

For reference, reported viability at 28.5 h, 10 µM for O=S1(=O)CC(NCc2ccccc2)C(Nc2ccccc2)C1 (stereo not drawn) [CBK265797] stands at 91.7

For reference, reported viability at 28.5 h, 10 µM for S=C(NCCc1ccccn1)NCCN1CCOCC1 [CBK268296] stands at 101

For reference, reported viability at 28.5 h, 10 µM for CS(=O)(=O)c1ccc(-c2ccc(C(=O)N3CCN(C(=O)c4ccco4)CC3)cn2)cc1 [CBK160190] stands at 95.2

For reference, reported viability at 28.5 h, 10 µM for CN1Cc2ccccc2CC1C(=O)N1CCc2ncc(Cl)cc2C1 (stereo not drawn) [CBK282568] stands at 85.5

For reference, reported viability at 28.5 h, 10 µM for COc1ccc(CN2CCN(Cc3cccnc3)CC2)cc1OC [CBK074409G] stands at 94.1

For reference, reported viability at 28.5 h, 10 µM for O=C(O)CCc1nc2ccccc2s1 [CBK264071] stands at 115

For reference, reported viability at 28.5 h, 10 µM for COc1cccc(CN2CCC(Cc3ccccc3)CC2)c1 [CBK126436] stands at 103

For reference, reported viability at 28.5 h, 10 µM for COc1cc(CN2CCN(c3ccccn3)CC2)ccc1O [CBK261537] stands at 118

For reference, reported viability at 28.5 h, 10 µM for CC(=O)c1ccc(-c2cc(C(=O)NC3CCc4ccccc43)cnc2-c2ccc(Cl)cc2)s1 (stereo not drawn) [CBK036762] stands at 96.9

For reference, reported viability at 28.5 h, 10 µM for CN(C)S(=O)(=O)N(CC(=O)N1CCN(Cc2ccccc2)CC1)c1ccccc1 [CBK268423] stands at 112

For reference, reported viability at 28.5 h, 10 µM for CS(=O)(=O)N(CC(=O)N1CCN(C(c2ccccc2)c2ccccc2)CC1)c1cccc(F)c1 [CBK266330] stands at 105

For reference, reported viability at 28.5 h, 10 µM for COc1ccccc1CN1CCC(Cc2ccccc2-c2ccccc2)(C(N)=O)CC1 [CBK285719] stands at 101

For reference, reported viability at 28.5 h, 10 µM for Cc1cc(N2CCCC(N(C)S(=O)(=O)c3cccc(F)c3)CC2)nc(C)n1 (stereo not drawn) [CBK285935] stands at 85.5

For reference, reported viability at 28.5 h, 10 µM for O=C(NCCC(=O)N1CCCCC1)c1cccc(OCc2cscn2)c1 [CBK306384] stands at 98.5

For reference, reported viability at 28.5 h, 10 µM for Cc1ccccc1OCC(=O)NCC1(N2CCCCC2)CCCCC1 [CBK297752] stands at 89.5

For reference, reported viability at 28.5 h, 10 µM for Cc1cc(C)nc(Nc2ccc(C3CCCN(C(=O)c4c(C)oc5c4CCCC5)C3)nc2)n1 (stereo not drawn) [CBK285988] stands at 109

For reference, reported viability at 28.5 h, 10 µM for O=C1C(=CNCc2ccco2)C(=O)c2ccccc21 [CBK262688] stands at 115

For reference, reported viability at 28.5 h, 10 µM for CCN1CCN(C(=O)Cc2cn(C)c3ccccc23)CC1 [CBK200254] stands at 96.9

For reference, reported viability at 28.5 h, 10 µM for COCCN1C(=O)C2(CC(=O)N(Cc3ccccc3)C2=O)c2cc(OC)ccc21 (stereo not drawn) [CBK075177] stands at 92.5

For reference, reported viability at 28.5 h, 10 µM for COc1cccc(C(=O)Nc2ccc(O)cc2C(=O)O)c1 [CBK268662] stands at 104

For reference, reported viability at 28.5 h, 10 µM for Cc1ccsc1-c1nc2cnccn2c1NC1CCCC1 [CBK283524] stands at 93.9

For reference, reported viability at 28.5 h, 10 µM for O=C(CCN1C(=O)/C(=C\c2cccs2)SC1=S)Nc1cc(Cl)ccc1O [CBK263643] stands at 98.2

For reference, reported viability at 28.5 h, 10 µM for CN(CCN1CCCCC1)C(=O)C1CC(=O)Nc2ccccc21 (stereo not drawn) [CBK282729] stands at 105

For reference, reported viability at 28.5 h, 10 µM for CCN(CC)C(=O)/C=C/c1ccc(C(C)C)cc1 [CBK149636] stands at 93.1

For reference, reported viability at 28.5 h, 10 µM for O=C(NC(c1ccc(Cl)cc1)c1ccsc1)C1CCN(C(=O)Oc2ccc(Cl)cc2)CC1 (stereo not drawn) [CBK060044] stands at 88.5

For reference, reported viability at 28.5 h, 10 µM for O=C(CCSc1nnnn1-c1ccc(C(=O)O)cc1)Nc1ccc(F)cc1 [CBK300497] stands at 88.4

====

testMethodNotes: in vitro
experimentalContext: human, hela cells, % viability
measurementLabel: viability at 28.5 h, 10 µM (%)
Give just the number in %; leave the unit off.

For reference, reported viability at 28.5 h, 10 µM for O=C(c1ccco1)N1CCC(n2c(=O)oc3ccc(Cl)cc32)CC1 stands at 103

For reference, reported viability at 28.5 h, 10 µM for O=C(c1ccccc1)N1C[C@@H](c2ccsc2)[C@@H]2CN(Cc3ccccc3F)CC[C@@H]21 stands at 116

For reference, reported viability at 28.5 h, 10 µM for O=C(c1ccco1)N1CCC(n2nc(C3CC3)ccc2=O)CC1 stands at 109

For reference, reported viability at 28.5 h, 10 µM for COc1ccc(C2=NN(C(=O)CCC(=O)O)C(c3cccs3)C2)cc1OC (stereo not shown) stands at 118

For reference, reported viability at 28.5 h, 10 µM for CC(C)(C)OC(=O)NCc1ccc(-c2cc(Nc3cccc(Cl)c3)ncn2)cc1 stands at 92.8

For reference, reported viability at 28.5 h, 10 µM for Cc1cc(Cl)ccc1Nc1nnc(C)c(=O)[nH]1 stands at 110

For reference, reported viability at 28.5 h, 10 µM for Cc1cc(F)ccc1OC1(C(=O)O)CCN(Cc2ccoc2)CC1 stands at 104

For reference, reported viability at 28.5 h, 10 µM for CNC(=O)C1(Cc2ccc(-c3ccccc3)cc2)CCN(C(=O)Cc2ccc(C)cc2)CC1 stands at 90.4

For reference, reported viability at 28.5 h, 10 µM for Cc1nn(Cc2ccccc2)c(Cl)c1C=Cc1cc(C(=O)O)c2ccccc2n1 stands at 95.4

For reference, reported viability at 28.5 h, 10 µM for O=C(COc1ccc([N+](=O)[O-])cc1)Nc1ccc(S(=O)(=O)N2CCCCC2)cc1 stands at 119
